// provenance: paper PMC10067442

Test system: C. elegans strain PE254
Assay: C. elegans LSC qHTS viability assay, Anti-Infectives library primary screen (BG-fed, 384-well)
Assay type: in vivo, Caenorhabditis elegans
Settings: treatment day 6; internal control, 16-point titration, six replicate wells; read-out: Treatment day, EC50 (GFP area)
measurement-label: EC50 (µM)

                                   compound  numeric_result
0  c1ccc([C@H]2CN3CCSC3=N2)cc1 [Levamisole]             4.9

* * *

Tested on: C. elegans strain PE254
Assay: C. elegans LSC qHTS viability assay, Anti-Infectives library primary screen (BG-fed, 384-well)
Assay type: in vivo, Caenorhabditis elegans
Settings: day 7; intra-plate screening control; averaged from 21 replicates; read-out: EC50 (GFP area)
measurement-label: EC50 (µM)

>>> df
         smiles_representation  measurement_label  unit  numeric_result
0  c1ccc([C@H]2CN3CCSC3=N2)cc1               EC50    µM            7.99

* * *

Tested on: C. elegans strain PE254
Experiment: C. elegans LSC qHTS viability assay, Anti-Infectives library primary screen (BG-fed, 384-well)
Assay type: in vivo, Caenorhabditis elegans
Settings: Caenorhabditis elegans, 72 h, read-out: Treatment day, EC50 (GFP area)
measurement-label: EC50 (nM)

                                   molecule  numeric_result
0  CCCSc1ccc2nc(NC(=O)OC)[nH]c2c1 [Albendazole]             200

* * *

Tested on: C. elegans strain PE254
Assay: C. elegans LSC qHTS viability assay, Anti-Infectives library primary screen (BG-fed, 384-well)
Assay type: in vivo, Caenorhabditis elegans
Conditions: Caenorhabditis elegans; Fig. 3D; read-out: qHTS potency based on GFP area
Structures can show the parent of a compound that is named as a salt.
measurement-label: EC50 (nM)

>>> print(df.to_string())
                                   molecule  unit  numeric_result
0  CC(C)C[C@H](NC(=O)[C@H](Cc1ccccc1)NC(=O)c1cnccn1)B(O)O    nM             888
1  CC(C)C[C@H](NC(=O)[C@@H](NC(=O)c1cccc(-c2ccccc2)n1)[C@@H](C)O)B(O)O    nM             405
2  CC(C)C[C@H](NC(=O)CNC(=O)c1cc(Cl)ccc1Cl)B(O)O    nM            1130
3  CC(C)C[C@H](NC(=O)CNC(=O)c1cc(Cl)ccc1Cl)B1OC(=O)C(CC(=O)O)(CC(=O)O)O1 [Ixazomib citrate]    nM             411
